- System: Vibrio fischeri bacteria
- protocol summary: Vibrio fischeri toxicity assay (Microtox, decay of bioluminescence)
- Format: cell-based
- experimental parameters: Aliivibrio fischeri, 0.25 h; Vibrio fischeri, 15 min incubation, 2% (w/v) NaCl solution; read-out: EC50 15min
Field: pEC50. Provide a value for each of the molecules that follow.
// pEC50: -log10(molar conc.)

Challenge: Recorded pEC50 of CCCCCCCCCC(=O)[O-].[Na+] [Na decanoate, sodium decanoate, reference compound] , please.
Response given: 3.89

Challenge: Let us now turn to CC(C)CCCCCCCCCCCCCCC(=O)[O-].[Na+] [Na Isostearate, sodium isostearate, reference compound]
Response given: 4.09

---

- Tested on: Vibrio fischeri bacteria
- protocol summary: Vibrio fischeri toxicity assay (Microtox, decay of bioluminescence)
- Assay type: cell-based
- experimental parameters: Aliivibrio fischeri, 5 min, read-out: EC50 5min
value kind: EC50
Output should be the measured figure followed by the unit it is expressed in.

Challenge: Recorded EC50 of CC(C)(C)CCCCCC(=O)[O-].[Na+] [Na Neodecanoate, sodium neodecanoate, reference compound] , please.
Response given: 500 µM
